study system: Muscarinic acetylcholine receptor M4 (Homo sapiens, UniProt P08173)
Sequence (P08173 whole entry): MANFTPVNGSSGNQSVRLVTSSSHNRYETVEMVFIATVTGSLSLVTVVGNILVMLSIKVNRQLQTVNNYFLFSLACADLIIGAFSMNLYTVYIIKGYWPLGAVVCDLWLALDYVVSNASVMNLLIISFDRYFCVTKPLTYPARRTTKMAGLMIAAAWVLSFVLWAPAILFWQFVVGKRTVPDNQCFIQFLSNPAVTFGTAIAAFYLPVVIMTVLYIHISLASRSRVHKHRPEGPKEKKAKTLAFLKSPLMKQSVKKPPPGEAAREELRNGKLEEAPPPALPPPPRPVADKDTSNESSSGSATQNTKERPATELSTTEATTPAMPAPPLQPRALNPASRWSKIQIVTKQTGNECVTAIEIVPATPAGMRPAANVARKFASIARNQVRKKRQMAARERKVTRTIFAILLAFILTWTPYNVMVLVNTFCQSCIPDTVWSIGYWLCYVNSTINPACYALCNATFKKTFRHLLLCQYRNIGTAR
test method notes: Displacement of [3H]-NMS from human recombinant M4 receptor expressed in CHO cells after 24 hrs by filter binding assay
pKi: −log10 of the molar value.
outcome measure: pKi

INSERT INTO assay_data (molecule, study_system, outcome_measure, assay_result) VALUES
  ('C[N+]1(C)[C@@H]2C[C@@H](OC(=O)C(O)(c3cccs3)c3cccs3)C[C@H]1[C@@H]1O[C@@H]12.O.[Br-] [TIOTROPIUM BROMIDE]', 'Muscarinic acetylcholine receptor M4 (Homo sapiens, UniProt P08173)', 'pKi', 11.11),
  ('CC(C)(CCC(C(N)=O)(c1ccccc1)c1ccccc1)N1CC(Oc2cccc(O)c2)C1', 'Muscarinic acetylcholine receptor M4 (Homo sapiens, UniProt P08173)', 'pKi', 9.94);

* * *

test method notes: Intrinsic clearance in human liver microsomes assessed per mg of protein in presence of NADPH
outcome measure: microsomal CLint

INSERT INTO results (molecular_string, outcome_measure, assay_result) VALUES
  ('CC(C)(CCC(C(N)=O)(c1ccccc1)c1ccccc1)N1CC[C@@H](Oc2cc(O)cc(F)c2)C1', 'microsomal CLint', '> 440 µL/min/mg'),
  ('CC(C)(CCC(C(N)=O)(c1ccccc1)c1ccccc1)N1CC(Oc2ccccc2)C1', 'microsomal CLint', '> 440 µL/min/mg'),
  ('CC(C)(CCC(C(N)=O)(c1ccccc1)c1ccccc1)N1CC(Oc2cccc(O)c2)C1', 'microsomal CLint', '> 282 µL/min/mg');

* * *

study system: Muscarinic acetylcholine receptor M3 (Homo sapiens)
test method notes: Antagonist activity at human recombinant M3 receptor expressed in CHO-K1 cells assessed as inhibition of carbamoyl choline-induced calcium currents after 4 hrs by fluorimetry
Assay type: functional, cell-based
Sequence (P20309 whole entry): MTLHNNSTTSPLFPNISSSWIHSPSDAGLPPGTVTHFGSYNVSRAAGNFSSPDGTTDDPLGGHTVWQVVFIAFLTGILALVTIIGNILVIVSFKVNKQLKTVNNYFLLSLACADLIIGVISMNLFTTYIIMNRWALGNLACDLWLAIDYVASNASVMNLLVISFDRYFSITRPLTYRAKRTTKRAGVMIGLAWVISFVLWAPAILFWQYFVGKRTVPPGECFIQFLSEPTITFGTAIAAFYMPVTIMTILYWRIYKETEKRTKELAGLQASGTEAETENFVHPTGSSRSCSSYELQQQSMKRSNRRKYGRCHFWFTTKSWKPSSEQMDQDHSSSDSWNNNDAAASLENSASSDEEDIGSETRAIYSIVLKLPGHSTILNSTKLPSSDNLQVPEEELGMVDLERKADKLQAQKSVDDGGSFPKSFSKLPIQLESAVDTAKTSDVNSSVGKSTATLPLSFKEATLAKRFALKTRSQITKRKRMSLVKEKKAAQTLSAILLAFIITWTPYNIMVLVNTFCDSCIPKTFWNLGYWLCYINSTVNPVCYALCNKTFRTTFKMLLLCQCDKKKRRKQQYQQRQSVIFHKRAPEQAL
pKi: −log10 of the molar value.
Form field: pKi (one value per entry).
outcome measure: pKi

INSERT INTO assay_data (molecular_string, outcome_measure, assay_result) VALUES
  ('CC(C)(CCC(C(N)=O)(c1ccccc1)c1ccccc1)N1CC[C@H](Oc2ccc(O)cc2)C1', 'pKi', 9.12),
  ('CC(C)(CCC(C(N)=O)(c1ccccc1)c1ccccc1)N1CC[C@@H](Oc2ccccc2)C1', 'pKi', 8.80),
  ('CC(C)(CCC(C(N)=O)(c1ccccc1)c1ccccc1)N1CC[C@@H](Oc2cc(O)cc(F)c2)C1', 'pKi', 9.25);

* * *

study system: Muscarinic acetylcholine receptor M3 (Homo sapiens)
condition: CHO
Sequence (P20309 whole entry, looked up): as the sequence (P20309 whole entry) above
outcome measure: T1/2

INSERT INTO results (compound, assay_result) VALUES
  ('CC(C)(CCC(C(N)=O)(c1ccccc1)c1ccccc1)N1CC[C@@H](Oc2cc(O)cc(F)c2)C1', '> 24 h'),
  ('CC(C)(CCC(C(N)=O)(c1ccccc1)c1ccccc1)N1CC[C@@H](Oc2ccccc2)C1', '> 24 h'),
  ('C[N+]1(C)[C@@H]2C[C@@H](OC(=O)C(O)(c3cccs3)c3cccs3)C[C@H]1[C@@H]1O[C@@H]12.O.[Br-] [TIOTROPIUM BROMIDE]', '> 24 h');

* * *

test method notes: Intrinsic clearance in human liver microsomes assessed per mg of protein by glucuronidation assay in presence of Brijj-58 and UDPGA
outcome measure: microsomal CLint (µL/min/mg)

INSERT INTO results (molecular_string, outcome_measure, unit_of_measure, assay_result) VALUES
  ('CC(C)(CCC(C(N)=O)(c1ccccc1)c1ccccc1)N1CC(Oc2cccc(O)c2)C1', 'microsomal CLint', 'µL/min/mg', 221),
  ('CC(C)(CCC(C(N)=O)(c1ccccc1)c1ccccc1)N1CC(Oc2ccc(Cl)c(O)c2)C1', 'microsomal CLint', 'µL/min/mg', 430),
  ('CC(C)(CCC(C(N)=O)(c1ccccc1)c1ccccc1)N1CC(Oc2cc(O)cc(Cl)c2)C1', 'microsomal CLint', 'µL/min/mg', 223),
  ('CC(C)(CCC(C(N)=O)(c1ccccc1)c1ccccc1)N1CC(Oc2cc(O)cc(F)c2)C1', 'microsomal CLint', 'µL/min/mg', 403);

* * *

study system: Muscarinic acetylcholine receptor M3 (Cavia porcellus) (UniProt Q8VH26)
Sequence (Q8VH26 1-587): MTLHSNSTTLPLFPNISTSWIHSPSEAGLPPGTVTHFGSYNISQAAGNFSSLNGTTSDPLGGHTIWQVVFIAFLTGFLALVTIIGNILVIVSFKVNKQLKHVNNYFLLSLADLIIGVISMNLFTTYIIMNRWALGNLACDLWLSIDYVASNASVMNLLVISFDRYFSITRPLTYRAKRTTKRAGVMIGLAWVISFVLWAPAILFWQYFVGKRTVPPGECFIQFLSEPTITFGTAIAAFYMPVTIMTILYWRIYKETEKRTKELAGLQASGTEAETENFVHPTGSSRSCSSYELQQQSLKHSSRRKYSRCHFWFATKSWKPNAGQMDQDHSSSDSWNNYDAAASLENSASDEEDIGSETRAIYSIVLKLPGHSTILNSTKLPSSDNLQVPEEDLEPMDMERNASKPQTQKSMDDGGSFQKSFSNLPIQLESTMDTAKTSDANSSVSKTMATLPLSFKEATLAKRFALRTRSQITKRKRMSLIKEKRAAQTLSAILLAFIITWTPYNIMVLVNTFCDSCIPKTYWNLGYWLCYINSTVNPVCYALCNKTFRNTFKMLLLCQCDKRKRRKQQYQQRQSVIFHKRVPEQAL
test method notes: Antagonist activity at M3 receptor in Dunkin-Hartley guinea pig tracheal strips assessed as time taken for electrically field-stimulated contractile response to recover by 25 percent of inhibition at Emax after 2 hrs
Assay type: functional
outcome measure: TIME

INSERT INTO assay_data (compound, study_system, outcome_measure, assay_result) VALUES
  ('CC(C)(CCC(C(N)=O)(c1ccccc1)c1ccccc1)N1CC[C@@H](Oc2cccc(O)c2)C1', 'Muscarinic acetylcholine receptor M3 (Cavia porcellus) (UniProt Q8VH26)', 'TIME', '> 16 h'),
  ('CC(C)(CCC(C(N)=O)(c1ccccc1)c1ccccc1)N1CC[C@H](Oc2cccc(O)c2)C1', 'Muscarinic acetylcholine receptor M3 (Cavia porcellus) (UniProt Q8VH26)', 'TIME', '> 16 h'),
  ('CC(C)[N+]1(C)C2CCC1CC(OC(=O)C(CO)c1ccccc1)C2.O.[Br-] (centres undefined)', 'Muscarinic acetylcholine receptor M3 (Cavia porcellus) (UniProt Q8VH26)', 'TIME', '1.47 h'),
  ('C[N+]1(C)[C@@H]2C[C@@H](OC(=O)C(O)(c3cccs3)c3cccs3)C[C@H]1[C@@H]1O[C@@H]12.O.[Br-] [TIOTROPIUM BROMIDE]', 'Muscarinic acetylcholine receptor M3 (Cavia porcellus) (UniProt Q8VH26)', 'TIME', '> 12.9 h');

Cited source for all entries: ChEMBL document CHEMBL1909511
